System: Hs-578T
Experiment: NCI tumour cell line growth inhibition, 48 h
Calls of active or inactive are those of the source. Rule as the data show it: active = GI50 up to about 1.1 µM and inactive = higher.
Measurement kind: GI50

Request: # value lookup — system Hs-578T, readout GI50, item N=C(N)SCc1ccc(N=C=S)cc1
Response: 12.6 µM (inactive)

Request: Another: C/C(=N\NC(=O)Nc1ccccc1Cl)c1ccc(O)cc1
Response: > 100 µM (inactive)

Request: Now consider N#Cc1c(N2CCCC2)ncn(Cc2ccccc2)c1=S and answer again.
Response: > 54.8 µM (inactive)

Request: CC(=O)OC12c3ccccc3-c3ccccc3C1C(C(=O)O)C2C(=O)O (centres undefined) , same question.
Response: > 10 µM (inactive)

====

Please go through the items and note down their GI50.
Test system: HOP-92
Assay: NCI tumour cell line growth inhibition, 48 h
The source made the active and inactive calls. Cut-off read from the data, not from the text of the source: active = GI50 up to about 1.1 µM and inactive = higher.

Request: Please look up its GI50: CCOC(=O)C1=C(C)N(c2ccccc2)C2=C(C(=O)N(c3ccccc3)C2c2ccccc2)C1c1ccccc1 (stereo not given)
Response: > 100 µM (inactive)

Request: Follow-up entry: C(=C\c1cccs1)/c1cccc(/C=C/c2cccs2)n1
Response: > 100 µM (inactive)

Request: Now consider COc1cc(OC)c(/C=C\c2cc(/C=C/c3c(OC)cc(OC)cc3OC)c3ccccc3[n+]2C)c(OC)c1 and answer again.
Response: 2.95 µM (inactive)

Request: Follow-up entry: O=C(Nc1ccc(Cl)cc1Cl)C(=O)C(C(=O)c1ccc2ccccc2c1)C1OC(=O)c2ccccc21 (stereo not given)
Response: 3.3 µM (inactive)

Request: Further, for Nn1c(CCCCCCCCc2nnc(COc3ccccc3)n2N)nnc1COc1ccccc1 ?
Response: > 100 µM (inactive)

Request: Check COc1cc(C=O)cc(/C=N/n2c3ccccc3c3ccccc32)c1O too.
Response: 2.91 µM (inactive)

Request: Would you kindly repeat that for COC(=O)c1ccc(CCC2=CC(=O)C=CC2=O)cc1 ?
Response: 4.43 µM (inactive)

Request: Then what about the molecule CCCCCCCCCCCCCCCCCCOCC(O)COP(=O)(O)OCC1OC(n2ccc(N)nc2=O)C(O)C1O (stereo not given) ?
Response: 19.9 µM (inactive)

Request: And the next one, O=C(NC(Cc1c[nH]c2ccccc12)C(=O)O)/C(=C/c1ccccc1O)NC(=O)c1ccccc1 (stereo not given) ?
Response: 14.5 µM (inactive)

Request: Please give the result for CN(/N=C/C=N/N(C)C1=NCCCN1)C1=NCCCN1 too.
Response: > 100 µM (inactive)

====

System: NCI-H460
Assay: NCI tumour cell line growth inhibition, 48 h
Calls of active or inactive are those of the source. No stated cut-off is given here; in the data, active = GI50 up to about 1.1 µM and inactive = higher.
Log the outcome using a class from y for active, n for inactive

Request: Fill in: this test's call for COC(=O)c1cc2c(nc1C)-c1ccccc1OS2(=O)=O is ___
Response: n

Request: Can you check CN(C)c1ccc(/N=N/c2ccncc2)cc1 next?
Response: n

Request: Same again, this time with COc1cc(C=O)cc(/C=N/n2c3ccccc3c3ccccc32)c1O
Response: n

Request: What about this compound? COc1cccc(/C=C2\CCC(CN(C)C)C2=O)c1 (configuration not stated)
Response: n

Request: Query CCOC(=O)C(=O)Nc1ccc(C)c(C)c1 next
Response: n

Request: Repeat with COC(=O)C(C)(C)/N=C/N(C)C
Response: n

Request: Another compound to look at: O=C1Cc2ccccc2CCc2ccsc21
Response: n

Request: Please give the result for CCN(CC)CCCCC1CCN(CC(=O)N2CC(C)C(=O)Nc3ccccc32)CC1 (configuration not stated) too.
Response: n

Request: What about Clc1ccccc1C(n1cc(Br)cn1)n1cc(Br)cn1 ?
Response: n

Request: Try this compound next: COc1ccc(CSCc2cc(OC)c(OC)c(OC)c2)cc1
Response: n

Request: Now the compound O=C(O)/C(=C/c1ccccc1)c1ccccc1
Response: n

Request: Item: COC1C(CO)OC(n2c3c(Cl)cccc3c3c4c(c5c6cccc(Cl)c6[nH]c5c32)C(=O)NC4=O)C(O)C1O (configuration not stated)
Response: y
